Reference source: ChEMBL document CHEMBL1201862

Listing of entries alongside the reported GI50.
Tested on: EKVX
protocol: NCI tumour cell line growth inhibition, 48 h
The source made the active and inactive calls. Cut-off read from the data, not from the text of the source: active = GI50 up to about 1.1 µM and inactive = higher.

CC(=O)Nc1cc2c3c(c1)CCCN3CCC2	64.9 µM (inactive)
Cc1nc2ccccc2c(=O)n1NC(=S)Nc1ccc(Cl)cc1[N+](=O)[O-]	36.2 µM (inactive)
c1ccc(-c2csc3c2-n2cccc2C3N2CCCC2)cc1 (stereo not given)	13.8 µM (inactive)

*Q* Could you tell me which GI50 is on file for NNC(=O)c1ccccc1Nc1nc(-c2cccs2)nc2ccc(Br)cc12 ?
*A* > 100 µM (inactive)

*Q* Could you tell me which GI50 is on file for c1ccc(N2CCN(CCCN3CCc4c([nH]c5ccccc45)C3c3cccnc3)CC2)cc1 (stereo not given) ?
*A* > 100 µM (inactive)

*Q* Could you tell me which GI50 is on file for COc1cc2c(cc1OC)C1=C(C=O)c3ccc(OC)c(OC)c3C(O)N1CC2 (stereo not given) ?
*A* 21.6 µM (inactive)

*Q* Could you tell me which GI50 is on file for N=C(N)SCCN1CCCCC1 ?
*A* 60.3 µM (inactive)

*Q* Could you tell me which GI50 is on file for OC(c1ccccc1)(c1ccccc1)c1cccnc1 ?
*A* > 100 µM (inactive)

*Q* Could you tell me which GI50 is on file for CCOC(=O)Nc1ccc(S(=O)(=O)OC)cc1.CCOC(=O)Nc1ccc(S(=O)(=O)OC)cc1.Cc1cn(C2CC(O)C(CO)O2)c(=O)[nH]c1=O ?
*A* > 100 µM (inactive)

*Q* Could you tell me which GI50 is on file for COc1ccc(C2c3cc4c(cc3OC(N3CCOCC3)C2C)OCO4)c(OC)c1OC (stereo not given) ?
*A* 24.2 µM (inactive)

*Q* Could you tell me which GI50 is on file for CCOC(=O)CN1C(=O)C(=O)N(c2ccc(OC)c3ccccc23)C1=O ?
*A* > 100 µM (inactive)

*Q* Could you tell me which GI50 is on file for CC(C)N1CN(C(C(=O)N[C@@H]2C(=O)N3C2SC(C)(C)C3C(=O)O)c2ccccc2)CSC1=S (stereo not given in full) ?
*A* > 100 µM (inactive)
